Each recorded value in this set is attributed to patent US7700763B2.

target.of.assay: Recombinant human galectin-3 (Homo sapiens)
Construct: made in house; host or cells: Escherichia coli
Sequence (P17931 whole entry): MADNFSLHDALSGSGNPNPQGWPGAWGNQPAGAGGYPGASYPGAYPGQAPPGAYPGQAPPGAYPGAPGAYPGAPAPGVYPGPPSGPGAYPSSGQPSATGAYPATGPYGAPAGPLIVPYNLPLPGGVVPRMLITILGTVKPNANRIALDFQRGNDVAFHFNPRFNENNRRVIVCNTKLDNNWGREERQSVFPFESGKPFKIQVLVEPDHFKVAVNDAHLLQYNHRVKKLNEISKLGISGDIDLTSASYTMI
experiment.summary: fluorescence polarization-based galectin-3 inhibition assay
Assay type: binding
protocol.conditions: read-out: Calculated Kd
pKd: −log10 of the molar value.
assay.endpoint: pKd

Illustrative cases are given below, each with its answer.
[[record]]
compound = "COC(=O)c1cn([C@H]2[C@@H](O)[C@@H](CO)O[C@@H](SC)[C@@H]2O)nn1 [Compound 10]"
assay_endpoint = "pKd"
number = 2.85

[[record]]
compound = "CS[C@@H]1OC(CO)[C@H](O)C(n2cc(C(=O)NCCN3CCOCC3)nn2)C1O (stereo partly drawn) [Compound 18]"
assay_endpoint = "pKd"
number = 3.24

[[record]]
compound = "CS[C@@H]1O[C@H](CO)[C@H](O)[C@H](n2cc(S(=O)(=O)c3ccc(C)cc3)nn2)[C@H]1O [Compound 13]"
assay_endpoint = "pKd"
number = 3.85

[[record]]
compound = "CS[C@@H]1O[C@H](CO)[C@H](O)[C@H](n2cc(-c3ccccc3)nn2)[C@H]1O [Compound 12]"
assay_endpoint = "pKd"
number = 3.83


I. CS[C@@H]1O[C@H](CO)[C@H](O)[C@H](n2cc(C(=O)NCCCO)nn2)[C@H]1O [Compound 17]
II. CCCCNC(=O)c1cn(C2C(O)[C@H](SC)OC(CO)[C@@H]2O)nn1 (stereo partly drawn) [Compound 15]
III. CCCc1cn([C@H]2[C@@H](O)[C@@H](CO)O[C@@H](SC)[C@@H]2O)nn1 [Compound 9]
IV. CS[C@@H]1O[C@H](CO)[C@H](O)[C@H](n2cc(C3(O)CCCCC3)nn2)[C@H]1O [Compound 11]
V. CS[C@@H]1O[C@H](CO)[C@H](O)[C@H](n2ccnn2)[C@H]1O [Compound 8]
// smallest pKd at index 0, largest at the end List the labels according to the requested ordering. V, III, IV, I, II
(V: 1.68, III: 2.34, IV: 2.86, I: 3.41, II: 3.91)
